assay: Blood levels after oral administration in mice (bioassay vs. Aspergillus montevidensis A35137); conditions: mouse, in vivo, po, 416 mg/kg
Numbered stars: 1 amine (or outer) side, 2 acyl side, 3 side chain; on linkers, the order of the positions; unused ones are H or OH. Bridge positions count the residues as written; N and C are the ends. Square brackets hold non-standard residues; d marks the D form. Peptide text beside a SMILES is read from it. * marks the point of attachment. Orn(4R-OH,5R-OH) = O=C([C@H](C[C@@H](O)[C@@H](O)N[*:3])N[*:1])[*:2]; hTyr(3S-OH,4S-OH) = N[C@H](C(=O)O)[C@H](O)[C@@H](O)c1ccc(O)cc1; Pro(3S-OH,4S-Me) = C[C@H]1CN[C@H](C(=O)O)[C@H]1O; Palmitoleoyl = CCCCCC/C=C\CCCCCCCC(=O)*; Heptadecanoyl = CCCCCCCCCCCCCCCCC(=O)*; Hyp = O=C(O)[C@@H]1C[C@@H](O)CN1; X6 = CCCCCC/C=C\CCCCCCCCCC(=O)*
Catalogue of molecules with associated concentration at 4 h

Some molecules with recorded concentration at 4 h:
1. CCCCCC/C=C\CCCCCCCCCC(=O)N[C@H]1C[C@@H](O)[C@@H](O)NC(=O)[C@@H]2[C@@H](O)[C@@H](C)CN2C(=O)[C@H]([C@@H](C)O)NC(=O)[C@H]([C@H](O)[C@@H](O)c2ccc(O)cc2)NC(=O)[C@@H]2C[C@@H](O)CN2C(=O)[C@H]([C@@H](C)O)NC1=O [Example 9] (X6-[Orn(4R-OH,5R-OH)]T[Hyp][hTyr(3S-OH,4S-OH)]T[Pro(3S-OH,4S-Me)]; lactam 1-C)    4.2 µg/mL
2. CCCCCCCCCCCCCCCCC(=O)N[C@H]1C[C@@H](O)[C@@H](O)NC(=O)[C@@H]2[C@@H](O)[C@@H](C)CN2C(=O)[C@H]([C@@H](C)O)NC(=O)[C@H]([C@H](O)[C@@H](O)c2ccc(O)cc2)NC(=O)[C@@H]2C[C@@H](O)CN2C(=O)[C@H]([C@@H](C)O)NC1=O [Example 5] (Heptadecanoyl-[Orn(4R-OH,5R-OH)]T[Hyp][hTyr(3S-OH,4S-OH)]T[Pro(3S-OH,4S-Me)]; lactam 1-C)    97 µg/mL

// below: concentration at 4 h requested for another molecule
Input line: Can you look up the measured concentration at 4 h of CCCCCC/C=C\CCCCCCCC(=O)N[C@H]1C[C@@H](O)[C@@H](O)NC(=O)[C@@H]2[C@@H](O)[C@@H](C)CN2C(=O)[C@H]([C@@H](C)O)NC(=O)[C@H]([C@H](O)[C@@H](O)c2ccc(O)cc2)NC(=O)[C@@H]2C[C@@H](O)CN2C(=O)[C@H]([C@@H](C)O)NC1=O [Example 4] (Palmitoleoyl-[Orn(4R-OH,5R-OH)]T[Hyp][hTyr(3S-OH,4S-OH)]T[Pro(3S-OH,4S-Me)]; lactam 1-C) for me?
Output line: 0.19 µg/mL

* * *

concentration at 4 h values, listed per item
test: Blood levels after oral administration in mice (bioassay vs. Aspergillus montevidensis A35137); details: mouse, in vivo, po, 416 mg/kg
Numbered stars: 1 amine (or outer) side, 2 acyl side, 3 side chain; on linkers, the order of the positions; unused ones are H or OH. Bridge positions count the residues as written; N and C are the ends. Square brackets hold non-standard residues; d marks the D form. Peptide text beside a SMILES is read from it. * marks the point of attachment. Orn(4R-OH,5R-OH) = O=C([C@H](C[C@@H](O)[C@@H](O)N[*:3])N[*:1])[*:2]; hTyr(3S-OH,4S-OH) = N[C@H](C(=O)O)[C@H](O)[C@@H](O)c1ccc(O)cc1; Pro(3S-OH,4S-Me) = C[C@H]1CN[C@H](C(=O)O)[C@H]1O; Nonadecanoyl = CCCCCCCCCCCCCCCCCCC(=O)*; X2 = CCCCC/C=C/C/C=C/CCCCCCCC(=O)*; Hyp = O=C(O)[C@@H]1C[C@@H](O)CN1; X3 = CCCCCCCC/C=C/CCCCCCCC(=O)*

1) CCCCCCCC/C=C/CCCCCCCC(=O)N[C@H]1C[C@@H](O)[C@@H](O)NC(=O)[C@@H]2[C@@H](O)[C@@H](C)CN2C(=O)[C@H]([C@@H](C)O)NC(=O)[C@H]([C@H](O)[C@@H](O)c2ccc(O)cc2)NC(=O)[C@@H]2C[C@@H](O)CN2C(=O)[C@H]([C@@H](C)O)NC1=O [Example 8] (X3-[Orn(4R-OH,5R-OH)]T[Hyp][hTyr(3S-OH,4S-OH)]T[Pro(3S-OH,4S-Me)]; lactam 1-C)    65 µg/mL

Input line: Give its concentration at 4 h value. Item: CCCCC/C=C/C/C=C/CCCCCCCC(=O)N[C@H]1C[C@@H](O)[C@@H](O)NC(=O)[C@@H]2[C@@H](O)[C@@H](C)CN2C(=O)[C@H]([C@@H](C)O)NC(=O)[C@H]([C@H](O)[C@@H](O)c2ccc(O)cc2)NC(=O)[C@@H]2C[C@@H](O)CN2C(=O)[C@H]([C@@H](C)O)NC1=O [Example 10] (X2-[Orn(4R-OH,5R-OH)]T[Hyp][hTyr(3S-OH,4S-OH)]T[Pro(3S-OH,4S-Me)]; lactam 1-C)
Output line: 0.61 µg/mL

Input line: Again, but for CCCCCCCCCCCCCCCCCCC(=O)N[C@H]1C[C@@H](O)[C@@H](O)NC(=O)[C@@H]2[C@@H](O)[C@@H](C)CN2C(=O)[C@H]([C@@H](C)O)NC(=O)[C@H]([C@H](O)[C@@H](O)c2ccc(O)cc2)NC(=O)[C@@H]2C[C@@H](O)CN2C(=O)[C@H]([C@@H](C)O)NC1=O [Example 12] (Nonadecanoyl-[Orn(4R-OH,5R-OH)]T[Hyp][hTyr(3S-OH,4S-OH)]T[Pro(3S-OH,4S-Me)]; lactam 1-C)
Output line: 54 µg/mL
